Origin of the recorded values: patent US10065941B2

- study.target: UniProtKB P56373
- Sequence (P56373 whole entry): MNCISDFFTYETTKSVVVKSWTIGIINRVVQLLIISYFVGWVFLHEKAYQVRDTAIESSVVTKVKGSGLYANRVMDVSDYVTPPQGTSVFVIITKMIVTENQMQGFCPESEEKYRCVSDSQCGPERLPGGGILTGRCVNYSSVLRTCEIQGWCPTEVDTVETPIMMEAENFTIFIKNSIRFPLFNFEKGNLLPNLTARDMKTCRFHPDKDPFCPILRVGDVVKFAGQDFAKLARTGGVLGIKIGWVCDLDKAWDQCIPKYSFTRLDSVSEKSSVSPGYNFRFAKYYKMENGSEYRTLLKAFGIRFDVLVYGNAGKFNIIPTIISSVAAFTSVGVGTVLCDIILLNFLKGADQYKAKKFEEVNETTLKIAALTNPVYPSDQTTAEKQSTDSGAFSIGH
- method.summary: Evaluation of human P2X3 receptor inhibitory activity (Test Example 1)
- condition.summary: C6BU-1 cell transfected with human P2X3 receptor gene, FLIPR 384
pIC50: −log10 of the molar value.
property.measured: pIC50

• Cc1ccc(Cn2c(=O)n(CC(C)(C)C(=O)O)c(=O)[nH]/c2=N\c2ccc(Oc3ccc(C)cn3)cc2)cc1 = 8.22
• O=C(O)CCn1c(=O)[nH]/c(=N\c2ccc(Oc3ccccn3)c(F)c2)n(Cc2ccc(Cl)cc2)c1=O = 8.15
• COC(=O)[C@H](C)[C@H](C)n1c(=O)[nH]/c(=N\c2ccc(Oc3cnccn3)c(F)c2)n(Cc2ccc(Cl)cc2)c1=O = 7.89
